// values below are reported EC50
Target: human Maxi K channel (BK channel), KCNMA1 (KCa1.1) and beta1 (KCNMB1) subunits (Homo sapiens, UniProt Q12791)
Sequence (Q12791 1-1178 isoform Q12791-5): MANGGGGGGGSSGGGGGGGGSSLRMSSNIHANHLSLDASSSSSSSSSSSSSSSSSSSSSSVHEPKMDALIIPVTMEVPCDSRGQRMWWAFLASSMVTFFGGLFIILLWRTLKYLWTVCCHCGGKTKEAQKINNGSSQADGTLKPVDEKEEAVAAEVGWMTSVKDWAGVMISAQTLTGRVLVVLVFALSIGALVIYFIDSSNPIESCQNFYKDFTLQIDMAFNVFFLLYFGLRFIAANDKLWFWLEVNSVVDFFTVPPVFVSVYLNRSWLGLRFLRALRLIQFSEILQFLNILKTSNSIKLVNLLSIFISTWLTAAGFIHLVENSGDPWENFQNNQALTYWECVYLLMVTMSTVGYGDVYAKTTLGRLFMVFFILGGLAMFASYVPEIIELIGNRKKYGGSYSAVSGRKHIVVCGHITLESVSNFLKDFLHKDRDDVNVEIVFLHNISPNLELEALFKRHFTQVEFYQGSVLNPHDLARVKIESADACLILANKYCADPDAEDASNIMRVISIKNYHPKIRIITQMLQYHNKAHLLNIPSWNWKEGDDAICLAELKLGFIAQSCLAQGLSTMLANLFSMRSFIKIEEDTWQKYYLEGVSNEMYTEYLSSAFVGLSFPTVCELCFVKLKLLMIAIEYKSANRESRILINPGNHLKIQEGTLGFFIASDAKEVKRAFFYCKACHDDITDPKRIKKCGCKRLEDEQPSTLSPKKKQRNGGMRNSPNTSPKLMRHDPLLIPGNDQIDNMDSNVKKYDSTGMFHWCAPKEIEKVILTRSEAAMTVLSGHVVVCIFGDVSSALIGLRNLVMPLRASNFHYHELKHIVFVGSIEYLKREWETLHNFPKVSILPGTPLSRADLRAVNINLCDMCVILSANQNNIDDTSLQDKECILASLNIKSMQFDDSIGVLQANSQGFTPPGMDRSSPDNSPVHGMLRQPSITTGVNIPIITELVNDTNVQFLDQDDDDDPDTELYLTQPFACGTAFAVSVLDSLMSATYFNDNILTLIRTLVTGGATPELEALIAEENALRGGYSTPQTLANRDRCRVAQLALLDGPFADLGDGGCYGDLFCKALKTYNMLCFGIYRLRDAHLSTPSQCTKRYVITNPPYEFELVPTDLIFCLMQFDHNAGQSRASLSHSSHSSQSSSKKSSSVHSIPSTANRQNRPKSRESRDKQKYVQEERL
Sequence (Q16558 whole entry partner): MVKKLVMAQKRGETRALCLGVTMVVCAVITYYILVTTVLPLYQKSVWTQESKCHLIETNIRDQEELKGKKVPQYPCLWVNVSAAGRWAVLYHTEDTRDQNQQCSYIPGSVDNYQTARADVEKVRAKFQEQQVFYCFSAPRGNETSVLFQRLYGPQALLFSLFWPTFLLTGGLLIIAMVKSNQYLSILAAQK

Would you please look over these solved cases?
- line.notation: "O=C(N[C@H]1CCOc2ccccc21)c1cnc2c(-c3cccc(C(F)(F)F)c3)csc2c1NC1CC1"
  EC50: "> 30 µM"
- line.notation: "C[C@H](NC(=O)c1cnc2c(-c3cc(Cl)cc(Cl)c3)csc2c1N1CCOCC1)c1ccccc1"
  EC50: "> 30 µM"
- line.notation: "Cc1sc2c(N3CCOCC3)c(C(=O)N[C@H]3CCc4ccccc43)cnc2c1-c1cc(F)cc(F)c1F"
  EC50: "> 30 µM"

// next item, EC50 requested
### Prompt Write down EC50 measured for item CN(C)c1c(C(=O)N[C@H]2CCCc3ccccc32)cnc2c(-c3cc(Cl)cc(Cl)c3)csc12
### Response > 30 µM
